Numbers sourced from PubChem BioAssay (NCATS).

System: C2A
METHOD_NOTES: qHTS profiling for inhibitors of Plasmodium falciparum proliferation (AID 504749); further: nearly all actives have a fitted effect of over 60% in size
EXPERIMENTAL_PARAMETERS: P. falciparum in erythrocytes, SYBR Green DNA, 72 h; series mostly up to 28.7 µM
Records with an inconclusive call do not appear. Active and inactive are the calls of the source. The call rests on the fitted dose curve; in most records, active means well fitted inhibition curve with a large enough effect; inconclusive means small, poorly fitted or top-dose-only effect; inactive means flat fitted curve, though single readings scatter.
The reply should be one of these categories: active, inactive

As a guide, the following entries are already answered.
Qu. For `C[C@H](N)Cc1ccccc1` , which call appears in the assay record?
Ans. inactive

Qu. What call does the record list for OC[C@@H](O)[C@H]1O[C@@H]2OC(C(Cl)(Cl)Cl)O[C@H]2[C@H]1O (stereo partly specified) ?
Ans. inactive

Qu. Assay outcome for COC(=O)C1C(OC(=O)c2ccccc2)CC2CCC1N2C (stereo unspecified) : what was it?
Ans. inactive

Qu. Each compound tested received a call. Report the one for CC(=O)[C@H]1CC[C@H]2C3CC[C@H]4C[C@H](O)CC[C@]4(C)C3CC[C@]12C (stereo partly specified) .
Ans. inactive

Qu. Fill in: this test's call for C[C@]12C=CC(=O)C=C1CC[C@@H]1C2CC[C@]2(C)OC(=O)CCC12 (stereo partly specified) is ___
Ans. inactive

Qu. What call does the record list for CC1OC(O[C@H]2C[C@@H](O)[C@]3(CO)[C@@H]4C(CC[C@]3(O)C2)[C@@]2(O)CC[C@H](C3=CC(=O)OC3)[C@@]2(C)C[C@H]4O)C(O)C(O)C1O (stereo partly specified) ?
Ans. inactive

Qu. Record lookup: outcome of this test for CCCCCCC(=O)O[C@H]1CC[C@H]2[C@@H]3CCC4CC(=O)C=C(C)[C@]4(C)[C@H]3CC[C@]12C (stereo partly specified) ?
Ans. inactive

Qu. I'd appreciate the recorded outcome for CC(CO)NC(=O)C1C=C2c3cccc4[nH]cc(c34)CC2N(C)C1 (stereo unspecified) from this test.
Ans. inactive

Qu. Write down the call the test reported for this compound. Item: C[C@@H]1CC[C@H]2[C@@H](C)C(=O)O[C@@H]3OC4(C)CC[C@@H]1C32OO4 (stereo partly specified)
Ans. active

Qu. Give the logged outcome of this assay for the following compound: CCC(=O)OC1(c2ccccc2)CCN(C)CC1C (stereo unspecified)
Ans. inactive

---
Qu. Recorded test call requested for COc1ccc2c3c1O[C@H]1[C@@H](O)C=C[C@H]4C(C2)NCCC341 (stereo partly specified)
Ans. inactive

###

Reported activation values for the following compounds.
METHOD_NOTES: qHTS assay for environmental chemicals that activate the Aryl hydrocarbon Receptor (AhR) signaling pathway (AID 651777); further: % of control where 0% means no effect; nearly all actives have a fitted effect of over 15% in size
EXPERIMENTAL_PARAMETERS: 1A2-DRE human hepatoma cells, luciferase, 24 h; hits give high values
Results filed as inconclusive are left out. The source made the active and inactive calls. Calls come from the whole dose curve; as a rule, active = well fitted activation curve with a large enough effect; inconclusive = small, poorly fitted or top-dose-only effect; inactive = flat fitted curve, though single readings scatter.

The following compounds have reported results that may help.
Qu. Give the reported activation for this compound. `Cn1cc(-c2ccccc2)c(=O)c(-c2cccc(C(F)(F)F)c2)c1`
Ans. 0.553% (inactive)

Qu. Output measured activation for this item: `COc1cc(Cl)c(OC)cc1Cl`
Ans. -2.48% (inactive)

Qu. Give reported activation value for `CC(C)(C)OOC(C)(C)c1ccc(C(C)(C)OOC(C)(C)C)cc1`
Ans. 0.613% (inactive)

***
Qu. Recall and state the measured activation for `Nc1nc(N)nc(N)n1` .
Ans. -1.1% (inactive)

Qu. Output measured activation for this item: `Cc1ccccc1CO[C@@H]1C[C@@]2(C(C)C)CC[C@]1(C)O2`
Ans. 0.466% (inactive)

Qu. Provide measured activation value, entry: CC(C)(C)C(O)C(Oc1ccc(-c2ccccc2)cc1)n1cncn1 (configuration not stated)
Ans. 0.741% (inactive)

Qu. Return the recorded activation value; entry: `CSC1=N[C@@](C)(c2ccccc2)C(=O)N1Nc1ccccc1`
Ans. -5.24% (inactive)

Qu. Given the compound `CCOP(OCC)OCC` , write its reported activation.
Ans. 1.72% (inactive)

Qu. Give the measured activation for `Oc1ccc(C2(c3ccc(O)cc3)c3ccccc3-c3ccccc32)cc1`
Ans. -0.464% (inactive)

Qu. Report activation, nothing else, for this compound: CC1(c2ccc(Oc3ccccc3)cc2)OC(=O)N(Nc2ccccc2)C1=O (configuration not stated)
Ans. 4.76% (inactive)

Qu. Report activation, nothing else, for this compound: FC(F)C(F)(F)OCC(Cn1cncn1)c1ccc(Cl)cc1Cl (configuration not stated)
Ans. 2.65% (inactive)

Qu. Find the measured activation of CCCN(CC)CC1COC2(CCC(C(C)(C)C)CC2)O1 (configuration not stated) and report it.
Ans. -1.94% (inactive)
